meta.source: PubChem BioAssay (NCI)

// reported growth inhibition per item
Test: NCI Yeast Anticancer Drug Screen. Data for the bub3 strain (AID 167)
Conditions: S. cerevisiae bub3 mutant strain, at 50.0 µM, stronger effect = higher value
This is part of a sample that, as a whole, favours compounds with a hit. Of some 79,000 tested, about 15% had one in any assay. Calls of active or inactive are those of the source. Cut-off read from the data, not from the text of the source: active = growth inhibition above about 70%; inactive = the rest.
measured.attribute: growth inhibition

compound=CC(=O)N=C1N(/C=C2\C(=O)Oc3ccccc3C2=O)C(=O)/C(=C/c2ccc3c(c2)OCO3)N1C observed_result="-6.35% (inactive)"
compound=CCCCNC(C)(C)CSS(=O)(=O)O observed_result="4.1% (inactive)"
compound=O=S(=O)(CS(=O)(=O)Nc1ccccc1)Nc1ccccc1 observed_result="11.3% (inactive)"
compound="CC(NC(=O)c1ccccc1)C1CCCCC1 (stereo not drawn)" observed_result="-12.7% (inactive)"
compound="CC1=CC(O/C=C2\\C(=O)OC3C=CCC23)OC1=O (stereo not drawn)" observed_result="-11.6% (inactive)"
compound=O=C(O)COc1ccc(C(=O)/C(SS/C(C(=O)c2ccc(OCC(=O)O)c(Cl)c2Cl)=C2\C=C(c3ccccc3Cl)SS2)=C2/C=C(c3ccccc3Cl)SS2)c(Cl)c1Cl observed_result="-19.9% (inactive)"
compound=COc1ccc(-c2nnc(-c3ccc(OC)cc3)nn2)cc1 observed_result="4.2% (inactive)"
compound=C[N+](C)(Cc1ccccc1)c1ccccc1 observed_result="4.1% (inactive)"
compound=CN1NC(c2ccccc2)=NN=C1c1ccccc1 observed_result="15.8% (inactive)"
compound=N#Cc1c(N2CCCC2)ncn(Cc2ccccc2)c1=O observed_result="7.15% (inactive)"
compound="O=c1[nH]c(=S)c2ncn(C3OC(CO)C(O)C3O)c2[nH]1 (stereo not drawn)" observed_result="-1.1% (inactive)"
compound=O=C(CC/[N+]([O-])=C/c1ccccc1)OCc1ccccc1 observed_result="21.8% (inactive)"
compound=COc1ccc(C(c2ccc(N(Cc3ccccc3)Cc3ccccc3)cc2NC(C)=O)c2ccc(N(Cc3ccccc3)Cc3ccccc3)cc2NC(C)=O)cc1OC observed_result="-6.1% (inactive)"
compound=O=C(COc1ccc(Cl)cc1Cl)Nc1ccc2ccccc2c1S(=O)(=O)O observed_result="8.4% (inactive)"
compound=COc1ccc2ncc(COC(=O)Nc3ccccc3)c(COC(=O)Nc3ccccc3)c2c1 observed_result="-7.4% (inactive)"
compound=Cc1cc(=O)c2c(ccc3c(=O)cc(C)[nH]c32)[nH]1 observed_result="-3.1% (inactive)"
compound=COC(=O)N/N=C(\C(=O)Nc1cccc([N+](=O)[O-])c1)c1nc2ccc([N+](=O)[O-])cc2[nH]c1=O observed_result="-17.1% (inactive)"
compound=COC(=O)CCCCCCCCC(=O)OC observed_result="25.8% (inactive)"
compound=COc1ccc(/C=C2\N=C(c3cc(OC)c(OC)c(OC)c3)OC2=O)cc1OC observed_result="-1.85% (inactive)"
compound=O=C(COc1ccc(Cl)cc1)Nc1nccs1 observed_result="20.4% (inactive)"
compound=Cn1ccnc1CCc1ccc(F)cc1F observed_result="-2.2% (inactive)"
compound=O=C(O)C=C1CCCCC1 observed_result="11.9% (inactive)"
compound=O=CN/C=C\c1cc(O)ccc1O observed_result="16.9% (inactive)"
compound="CC(C)(C)OC(=O)NC1CCC(C(C)(C)C)CC1 (stereo not drawn)" observed_result="7.9% (inactive)"
compound=CN[C@H]1CCc2cc(OC)c(OC)c(OC)c2-c2ccc(O)c(=O)cc21 observed_result="0.3% (inactive)"
compound=O=C1C(=C(c2ccccc2)N2CCCCC2)C(=O)c2ccccc21 observed_result="19.3% (inactive)"
compound=CN(C)C(=S)Oc1ccc([N+](C)(C)C)cc1 observed_result="3.15% (inactive)"
compound=Cc1ccc(NC=O)cc1NC=O observed_result="4.2% (inactive)"
compound=O=C(O)/C=C\C(=O)Nc1ccc(S(=O)(=O)Nc2nccs2)cc1 observed_result="1.6% (inactive)"
compound=CN1C(=O)N(c2nc3ccccc3[nH]2)C(C)(C)C1=O observed_result="6.35% (inactive)"
compound=CC(=O)c1cc2c(cc1C(C)C)CC[C@H]1[C@](C)(C#N)CCC[C@]21C observed_result="15.9% (inactive)"
compound=Cn1nnc(/N=C/c2ccccc2)n1 observed_result="4.75% (inactive)"
compound="COC(=O)NC(Cc1ccccc1)NC(=O)OC(C)(C)C (stereo not drawn)" observed_result="-4.25% (inactive)"
compound=CCN(CC)Cc1cc(N=Nc2ccc(-c3ccc(N)c(OC)c3)cc2OC)c2ccccc2c1O observed_result="-4.8% (inactive)"
compound="NC1CC(=O)C(CC2C(=O)CC(N)CC2=O)C(=O)C1 (stereo not drawn)" observed_result="-1.15% (inactive)"
compound="OC1CCC(C2C3CCCCC3C3CCCCC3C2C2CCC(O)CC2)CC1 (stereo not drawn)" observed_result="97.2% (active)"
compound="CCCCCCC(=O)N1CC(C)OC(C)C1 (stereo not drawn)" observed_result="-14.7% (inactive)"
compound=CC(C)(C)CC(C)(C)N(CSc1ccc2ccccc2c1)CSc1ccc2ccccc2c1 observed_result="-0.45% (inactive)"
